This collection of values is drawn from the NIST ThermoML archive (doi:10.1021/je900550v).

- Experimental Parameters: 291.4 K; 101.33 kPa; Liquid; Vibrating tube method
Numbers after ± are expanded uncertainties.
Below, each entry is listed with its recorded mass density.
Assay Metric: mass density

1. CCCC(=O)[O-].C[NH2+]CCO [N-methyl-2-hydroxyethylammonium butanoate]; 1043.82 ± 2.2 kg/m3
2. CCCCC(=O)[O-].C[NH2+]CCO [2-hydroxy-N-methylethanaminium pentanoate]; 1020.79 ± 2.2 kg/m3
3. C[NH2+]CCO.O=C[O-] [2-hydroxy-N-methylethanaminium formate]; 1132.01 ± 2.2 kg/m3
4. CC(=O)[O-].C[NH2+]CCO [N-methyl-2-hydroxyethylammonium acetate]; 1104.82 ± 2.2 kg/m3
5. CC(C)C(=O)[O-].C[NH2+]CCO [2-hydroxy-N-methylethanaminium isobutyrate]; 1047.63 ± 2.2 kg/m3
6. CCC(=O)[O-].C[NH2+]CCO [2-hydroxy-N-methylethanaminium propionate]; 1075.65 ± 2.2 kg/m3
